meta.source: PubChem BioAssay (NCI)

Reported growth inhibition by item:
# protocol summary: NCI Yeast Anticancer Drug Screen. Data for the mgt1 strain (AID 153)
# particulars: S. cerevisiae mgt1 mutant growth inhibition; at 3.7 µM; stronger effect = higher value
The panel holds about 79,000 compounds, 15% with a hit somewhere; the sample as a whole holds those more often. Active and inactive are the calls of the source. No stated cut-off is given here; in the data, active means growth inhibition above about 70%; inactive means the rest.

Sample records with growth inhibition:
molecule: CCCCCC/C(C)=N/Nc1ccc([N+](=O)[O-])cc1[N+](=O)[O-]
growth inhibition: -9% (inactive)
//
molecule: CC1C=CN(N(C)C)C2=C1C(=O)c1cnccc1C2=O (stereo unspecified)
growth inhibition: 9% (inactive)
//
molecule: O=C1c2ccccc2C2CCC1c1ccccc12 (stereo unspecified)
growth inhibition: 6% (inactive)
//
molecule: Cc1cnc(/C=N\NC(N)=S)c2cccc(N)c12
growth inhibition: -69% (inactive)
//
molecule: O=C1OC(c2ccc(Cl)cc2)Sc2ccccc21 (stereo unspecified)
growth inhibition: 8% (inactive)

Record summary for C[Si](C)(C)Cc1ccccc1C(=O)O : reported growth inhibition = 6% (inactive)
